Every entry's value here was drawn from PubChem BioAssay (NCI).

Test system: T-47D breast
procedure_details: NCI tumour cell line growth inhibition, 48 h
property_label: TGI

compound	study_target	data_value
CC1=C(C(=O)NC(C)(C)C)CC(C(=O)NC(C)(C)C)C(C)N1 (stereo not drawn)	T-47D breast	> 100 µM
CSc1nc(C)c(CCCl)c(Cl)n1	T-47D breast	> 100 µM
c1ccc2c(CN3CCC(C4CCN(Cc5cccc6ccccc56)CC4)CC3)cccc2c1	T-47D breast	89.1 µM
C/C(=N\NC(=S)Nc1ccc(Cl)cc1)c1nc2ncccc2[nH]1	T-47D breast	20.9 µM
COc1cc(-c2oc3c(OC)c(O)cc(O)c3c(=O)c2OC)ccc1O	T-47D breast	18.2 µM
CSc1nc(-c2ccc(Cl)cc2)c(C#N)c(=O)[nH]1	T-47D breast	> 100 µM

Reported TGI ( `O=C1/C(=C/c2ccc(Cl)cc2)Sc2scc(-c3cccc([N+](=O)[O-])c3)[n+]21` ) = > 100 µM

Reported TGI ( CC/C=C/C(/C=C/C[C@]1(CC)C[C@H](CC)[C@H](CC(=O)O)OO1)CC (stereo partly drawn) ) = > 23.1 µM

Reported TGI ( `Nc1cc(-c2ccccc2)n(C(=O)Nc2ccc(Oc3ccccc3)cc2)n1` ) = > 100 µM

Reported TGI ( `COC(=O)Nc1nc2ccc(S(=O)(=O)c3ccc(NC(=O)Nc4cc(C(F)(F)F)ccc4F)cc3)cc2[nH]1` ) = > 25 µM

Reported TGI ( NCCSC(C[N+](=O)[O-])c1ccccc1Cl (stereo not drawn) ) = 9.09 µM

Reported TGI ( COC(=O)CNCC1OC2OC(C)(C)OC2C1N=[N+]=[N-] (stereo not drawn) ) = > 100 µM

Reported TGI ( C#CC(O)Cc1ccc(OC)c2occc12 (stereo not drawn) ) = > 100 µM

Reported TGI ( `Cc1cc(-c2ccc(C(=O)C(c3ccccc3)(c3ccccc3)c3ccccc3)[nH]2)on1` ) = > 100 µM
